Target: natriuretic peptide receptor on C3H10T1/2 cells (Mus musculus, UniProt Q6VVW5)
Construct: endogenous in cells; host or cells: C3H10T1/2 cells
Sequence (Q6VVW5 23-1047 limits assumed): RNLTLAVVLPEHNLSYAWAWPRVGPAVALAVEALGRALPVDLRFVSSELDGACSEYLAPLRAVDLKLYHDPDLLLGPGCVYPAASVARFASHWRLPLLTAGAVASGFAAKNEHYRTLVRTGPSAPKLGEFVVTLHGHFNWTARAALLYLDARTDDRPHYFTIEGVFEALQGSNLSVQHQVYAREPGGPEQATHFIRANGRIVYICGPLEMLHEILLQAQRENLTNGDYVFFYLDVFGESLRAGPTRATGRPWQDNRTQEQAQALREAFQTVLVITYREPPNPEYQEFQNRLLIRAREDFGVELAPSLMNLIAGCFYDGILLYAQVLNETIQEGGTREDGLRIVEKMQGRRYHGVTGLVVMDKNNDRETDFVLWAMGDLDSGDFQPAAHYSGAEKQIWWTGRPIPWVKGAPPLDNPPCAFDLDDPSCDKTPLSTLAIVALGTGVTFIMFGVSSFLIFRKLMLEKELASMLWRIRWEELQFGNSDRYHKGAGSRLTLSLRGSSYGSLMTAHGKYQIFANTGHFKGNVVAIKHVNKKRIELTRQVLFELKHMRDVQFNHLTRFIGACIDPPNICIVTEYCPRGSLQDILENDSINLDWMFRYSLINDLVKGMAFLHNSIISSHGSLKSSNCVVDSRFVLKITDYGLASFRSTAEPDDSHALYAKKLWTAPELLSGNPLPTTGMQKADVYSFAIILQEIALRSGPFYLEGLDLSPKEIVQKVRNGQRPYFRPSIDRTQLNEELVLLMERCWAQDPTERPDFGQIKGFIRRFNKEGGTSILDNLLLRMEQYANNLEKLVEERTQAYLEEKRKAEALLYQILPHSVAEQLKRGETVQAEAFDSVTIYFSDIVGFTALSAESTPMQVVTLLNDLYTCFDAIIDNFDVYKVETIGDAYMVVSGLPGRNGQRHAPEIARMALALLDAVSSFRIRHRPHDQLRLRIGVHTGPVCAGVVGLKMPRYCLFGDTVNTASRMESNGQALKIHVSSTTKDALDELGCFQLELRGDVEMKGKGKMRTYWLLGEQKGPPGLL
Assay: Biotrak enzyme immunoassay of cGMP elicited on C3H10T1/2 cells
Assay type: cell-based
Conditions: Table 3; cGMP values at 10^-6 M, compared to CNP (CNP 1-22 and CNP 5-22 = 100%)
Assignment: determine reported cGMP response as percent of CNP for the given sequences.
// return numeric value only (unit: %, not printed)

cGMP response as percent of CNP for C L G L K L D R I G S M S G L G C (CLGLKLDRIGSMSGLGC; peptide variant) [SEQ ID NO:29] is 6.255

cGMP response as percent of CNP for C F G L K L A R I G S A S G L G C (CFGLKLARIGSASGLGC; peptide variant) [SEQ ID NO:26] is 5.755

cGMP response as percent of CNP for C M G L K L D R I G S M S G L G C (CMGLKLDRIGSMSGLGC; peptide variant) [SEQ ID NO:30] is −1.341

cGMP response as percent of CNP for C F G L K L D R T G S M S G L G C (CFGLKLDRTGSMSGLGC; peptide variant) [SEQ ID NO:53] is −1.945

cGMP response as percent of CNP for C F G L K L D R I G T M S G L G C (CFGLKLDRIGTMSGLGC; peptide variant) [SEQ ID NO:56] is 74.080

cGMP response as percent of CNP for C F G L K L D R I G G M S G L G C (CFGLKLDRIGGMSGLGC; peptide variant) [SEQ ID NO:55] is 27.811

cGMP response as percent of CNP for C F G L K L I R I G S M S G L G C (CFGLKLIRIGSMSGLGC; peptide variant) [SEQ ID NO:38] is 7.228

cGMP response as percent of CNP for C V G L K L D R I G S M S G L G C (CVGLKLDRIGSMSGLGC; peptide variant) [SEQ ID NO:32] is 5.740

cGMP response as percent of CNP for C F G L K L D R I G S W S G L G C (CFGLKLDRIGSWSGLGC; peptide variant) [SEQ ID NO:65] is 66.450

cGMP response as percent of CNP for C A G L K L D R I G S A S G L G C (CAGLKLDRIGSASGLGC; peptide variant) [SEQ ID NO:25] is 3.933

cGMP response as percent of CNP for C F G L K L D K I G S M S G L G C (CFGLKLDKIGSMSGLGC; peptide variant) [SEQ ID NO:49] is 21.543

cGMP response as percent of CNP for C F G L K L D R I G N M S G L G C (CFGLKLDRIGNMSGLGC; peptide variant) [SEQ ID NO:57] is 27.430

cGMP response as percent of CNP for C F G L M L D R I G S M S G L G C (CFGLMLDRIGSMSGLGC; peptide variant) [SEQ ID NO:44] is 5.421

cGMP response as percent of CNP for C F G L K L M R I G S M S G L G C (CFGLKLMRIGSMSGLGC; peptide variant) [SEQ ID NO:39] is 7.784

cGMP response as percent of CNP for C T G L K L D R I G S M S G L G C (CTGLKLDRIGSMSGLGC; peptide variant) [SEQ ID NO:34] is −6.903

cGMP response as percent of CNP for C T G L K L D R I G S A S G L G C (CTGLKLDRIGSASGLGC; peptide variant) [SEQ ID NO:71] is −9.108

cGMP response as percent of CNP for C F G V K L D R I G S M S G L G C (CFGVKLDRIGSMSGLGC; peptide variant) [SEQ ID NO:42] is 64.212

cGMP response as percent of CNP for C A G L K L A R I G S M S G L G C (CAGLKLARIGSMSGLGC; peptide variant) [SEQ ID NO:24] is −5.848

cGMP response as percent of CNP for C F G L K L D R I G S M S L L G C (CFGLKLDRIGSMSLLGC; peptide variant) [SEQ ID NO:59] is 15.289

cGMP response as percent of CNP for C F G L K L D R I G S M S K L G C (CFGLKLDRIGSMSKLGC; peptide variant) [SEQ ID NO:60] is 49.202

cGMP response as percent of CNP for C F G L K V D R I G S M S G L G C (CFGLKVDRIGSMSGLGC; peptide variant) [SEQ ID NO:47] is 66.714

cGMP response as percent of CNP for C F G L K L E R I G S M S G L G C (CFGLKLERIGSMSGLGC; peptide variant) [SEQ ID NO:35] is 9.450

cGMP response as percent of CNP for C F G L K L D R I G S M S A L G C (CFGLKLDRIGSMSALGC; peptide variant) [SEQ ID NO:58] is 53.649

cGMP response as percent of CNP for C F G L K L D R I G S G S G L G C (CFGLKLDRIGSGSGLGC; peptide variant) [SEQ ID NO:69] is 62.117

cGMP response as percent of CNP for C F G L K L D R I G S M S G Q G C (CFGLKLDRIGSMSGQGC; peptide variant) [SEQ ID NO:61] is −3.474

cGMP response as percent of CNP for C F G A K L D R I G S M S G L G C (CFGAKLDRIGSMSGLGC; peptide variant) [SEQ ID NO:40] is 20.154

cGMP response as percent of CNP for C H G L K L D R I G S M S G L G C (CHGLKLDRIGSMSGLGC; peptide variant) [SEQ ID NO:33] is 5.699

cGMP response as percent of CNP for C H G L K L D R I G S A S G L G C (CHGLKLDRIGSASGLGC; peptide variant) [SEQ ID NO:70] is 3.058

The values you see were collected from patent US7276481B2.
